- System: Escherichia coli IAI1
- protocol: fold change of Putrescine concentration vs plate DMSO controls (fold change (ratio)); higher = more amine produced, active = hit call of the paper (significant change in both replicates, either direction)
- experimental.conditions: incubation time: 27 h, anaerobic, 37 °C
Counter-ions that a name gives are not always drawn.
Answer NO if fold change of Putrescine concentration is under 1, and YES if it is 1 or more.

Examples with answers:
{"columns": ["molecule", "experimental.system", "assigned.category"],
 "data": [
  ["Nc1nnc(-c2cccc(Cl)c2Cl)c(N)n1 [Lamotrigine] (20 µM)", "Escherichia coli IAI1", "NO"],
  ["CC(=C(CCO)SSCC1CCCO1)N(C=O)Cc1cnc(C)nc1N (stereo in doubt) [Fursultiamine hydrochloride] (20 µM)", "Escherichia coli IAI1", "YES"],
  ["CC[N+]1(CC)CCC(=C(c2ccccc2)c2ccccc2)C1C (centres undefined) [Prifinium Bromide] (20 µM)", "Escherichia coli IAI1", "YES"],
  ["CN(C)CC/C=C1/c2ccccc2Sc2ccc(Cl)cc21 [Chlorprothixene hydrochloride] (20 µM)", "Escherichia coli IAI1", "NO"],
  ["C#CCN[C@@H]1CCc2ccccc21 [Rasagiline] (20 µM)", "Escherichia coli IAI1", "NO"],
  ["Nc1ccccc1S(N)(=O)=O [o-Sulfanilamide] (20 µM)", "Escherichia coli IAI1", "YES"],
  ["O=C(NCCCN1CCOCC1)c1ccc(Cl)cc1 [Eprobemide] (20 µM)", "Escherichia coli IAI1", "NO"],
  ["COC(=O)[C@@H]1[C@H]2C[C@H]3c4[nH]c5ccccc5c4CCN3C[C@@H]2CC[C@@H]1O [Yohimbine hydrochloride] (20 µM)", "Escherichia coli IAI1", "YES"],
  ["O=S(=O)([O-])NC1CCCCC1.[Na+] [Sodium cyclamate] (50 µM)", "Escherichia coli IAI1", "YES"],
  ["Cc1cc(-c2ccccc2)nnc1NCCN1CCOCC1 [Minaprine dihydrochloride] (20 µM)", "Escherichia coli IAI1", "NO"]
]}

Q: Can CN1[C@@H]2CC[C@H]1C[C@@H](OC(c1ccccc1)c1ccccc1)C2 [Benztropine mesylate] (20 µM) be said to have fold change of Putrescine concentration at or above 1?
Ans: YES

Q: Is it the case that CC(C)COCC(CN(Cc1ccccc1)c1ccccc1)N1CCCC1 (centres undefined) [Bepridil hydrochloride] (20 µM) has fold change of Putrescine concentration reaching or exceeding 1?
Ans: YES

Q: Could you please find out whether CC(C)(C)NC[C@@H](O)COc1cccc2c1CCCC2=O [(+) Levobunolol hydrochloride] (20 µM) has fold change of Putrescine concentration that meets 1 or exceeds it?
Ans: YES

Q: Identify whether the reported fold change of Putrescine concentration of the following molecule is 1 or greater: CC(C)C[C@H](NC(=O)[C@@H](O)[C@H](N)Cc1ccccc1)C(=O)O [Ubenimex] (20 µM)
Ans: YES

Q: Hello, I need to know if CCCCNc1ccc(C(=O)OCCN(C)C)cc1 [Tetracaine hydrochloride] (20 µM) has measured fold change of Putrescine concentration not below 1. Thanks!
Ans: NO

Q: Given Clc1ccc(C(Cn2ccnc2)OCc2csc3c(Cl)cccc23)c(Cl)c1 (centres undefined) [Sertaconazole nitrate] (20 µM) , state whether its fold change of Putrescine concentration is at least 1.
Ans: YES

Q: I'd appreciate it if you could say whether CCSc1ccc2c(c1)N(CCCN1CCN(C)CC1)c1ccccc1S2 [Thiethylperazine maleate] (20 µM) has fold change of Putrescine concentration at least equal to 1.
Ans: YES
